Every entry's value here was drawn from patent US8110398B2.

# experimentalTarget: P-gp (Homo sapiens, UniProt P08183)
# Sequence (P08183 whole entry): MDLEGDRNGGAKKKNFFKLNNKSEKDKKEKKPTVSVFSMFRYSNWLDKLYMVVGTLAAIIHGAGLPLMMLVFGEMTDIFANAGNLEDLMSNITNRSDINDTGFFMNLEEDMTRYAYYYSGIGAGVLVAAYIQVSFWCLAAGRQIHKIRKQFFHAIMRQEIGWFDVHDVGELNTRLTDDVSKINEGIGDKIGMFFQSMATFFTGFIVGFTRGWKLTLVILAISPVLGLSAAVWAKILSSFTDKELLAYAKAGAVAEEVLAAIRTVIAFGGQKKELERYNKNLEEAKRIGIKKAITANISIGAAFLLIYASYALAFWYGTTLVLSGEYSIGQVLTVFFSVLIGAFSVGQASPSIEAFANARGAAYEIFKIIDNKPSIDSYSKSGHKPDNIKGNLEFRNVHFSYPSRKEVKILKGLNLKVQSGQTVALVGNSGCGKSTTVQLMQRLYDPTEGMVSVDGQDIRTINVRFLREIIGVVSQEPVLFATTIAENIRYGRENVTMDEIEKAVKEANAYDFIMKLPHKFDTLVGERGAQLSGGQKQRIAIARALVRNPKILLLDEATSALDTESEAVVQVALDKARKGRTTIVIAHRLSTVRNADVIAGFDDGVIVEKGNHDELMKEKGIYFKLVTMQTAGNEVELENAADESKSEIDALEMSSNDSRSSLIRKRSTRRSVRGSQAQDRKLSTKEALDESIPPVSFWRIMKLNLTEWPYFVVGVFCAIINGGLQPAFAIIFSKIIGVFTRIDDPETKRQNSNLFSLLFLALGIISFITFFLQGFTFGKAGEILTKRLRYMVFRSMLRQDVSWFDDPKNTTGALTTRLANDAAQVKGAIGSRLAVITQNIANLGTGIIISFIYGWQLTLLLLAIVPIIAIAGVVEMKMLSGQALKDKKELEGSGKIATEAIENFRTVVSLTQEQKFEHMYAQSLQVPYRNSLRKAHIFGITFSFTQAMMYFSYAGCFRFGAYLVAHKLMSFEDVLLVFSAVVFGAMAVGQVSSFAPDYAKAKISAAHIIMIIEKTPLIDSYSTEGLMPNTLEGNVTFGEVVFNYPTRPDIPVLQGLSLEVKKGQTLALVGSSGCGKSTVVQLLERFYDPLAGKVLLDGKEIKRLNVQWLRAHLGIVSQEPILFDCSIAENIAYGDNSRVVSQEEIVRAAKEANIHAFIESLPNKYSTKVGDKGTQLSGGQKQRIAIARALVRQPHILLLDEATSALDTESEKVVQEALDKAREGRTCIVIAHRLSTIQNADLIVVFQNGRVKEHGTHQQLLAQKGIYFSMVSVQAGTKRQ
# assayMethodText: in vitro
# conditionNotes: Caco-2, pH 7.4, Efflux of digoxin B-A
measurementKind: Papp B→A at 2 h

>>> result("C[C@H]1O[C@@H](O[C@H]2[C@@H](O)C[C@H](O[C@H]3[C@@H](O)C[C@H](O[C@H]4CC[C@@]5(C)[C@H](CC[C@@H]6[C@@H]5C[C@@H](O)[C@]5(C)[C@@H](C7=CC(=O)OC7)CC[C@]65O)C4)O[C@@H]3C)O[C@@H]2C)C[C@H](O)[C@@H]1O [Digoxin]")
"3.69 ×10⁻⁶ cm/s"

* * *

# experimentalTarget: P-gp (Homo sapiens, UniProt P08183)
# assayMethodText: Calcein-AM assay
# conditionNotes: transduced C2BBe1 cells vs Un-KD
measurementKind: P-gp function by intracellular calcein fluorescence

>>> result("shRNA/P-gp #85: shRNA to human P-gp, SEQ ID NO: 3, lentivirally transduced into C2BBe1 cells; clone #85 (CCGGCGACAGAATAGTAACTTGTTTCTCGAGAAACAAGTTACTATTCTGTCGTTTTTG; listed as Homo Sapiens)")
"significantly decreased"
>>> result("shRNA/P-gp #84: shRNA to human P-gp, SEQ ID NO: 2, lentivirally transduced into C2BBe1 cells; clone #84 (CCGGGCAGCAATTAGAACTGTGATTCTCGAGAATCACAGTTCTAATTGCTGCTTTTTG; listed as Homo Sapiens)")
"significantly decreased"
>>> result("shRNA/P-gp #87: shRNA to human P-gp, SEQ ID NO: 5, lentivirally transduced into C2BBe1 cells; clone #87 (CCGGGCTGCTTTCCTGCTGATCTATCTCGAGATAGATCAGCAGGAAAGCAGCTTTTTG; listed as Homo Sapiens)")
"significantly decreased"
>>> result("shRNA/P-gp #86: shRNA to human P-gp, SEQ ID NO: 4, lentivirally transduced into C2BBe1 cells; clone #86 (CCGGGCTCATCGTTTGTCTACAGTTCTCGAGAACTGTAGACAAACGATGAGCTTTTTG; listed as Homo Sapiens)")
"significantly decreased"
>>> result("shRNA/P-gp #83: shRNA to human P-gp, SEQ ID NO: 1, lentivirally transduced into C2BBe1 cells; clone #83 (CCGGCCGAACACATTGGAAGGAAATCTCGAGATTTCCTTCCAATGTGTTCGGTTTTTG; listed as Homo Sapiens)")
"significantly decreased"

* * *

# assayMethodText: in vitro
# conditionNotes: human, Caco-2, pH 7.4
measurementKind: efflux ratio at 2 h

>>> quantitativeresult("CNCCCN1c2ccccc2CCc2ccccc21")
5.59
>>> quantitativeresult("Cc1cc(=O)n(-c2ccccc2)n1C [Antipyrine]")
0.84
>>> quantitativeresult("COc1cc([C@@H]2c3cc4c(cc3[C@@H](O[C@@H]3O[C@@H]5CO[C@@H](C)O[C@H]5[C@H](O)[C@H]3O)[C@H]3COC(=O)[C@H]23)OCO4)cc(OC)c1O [Etoposide]")
13.7

* * *

# System: MRP2 mRNA
# assayMethodText: RT-PCR of MRP2 mRNA expression in transduced C2BBe1 cells
# Assay type: cell-based, human
# conditionNotes: RT-PCR, C2BBe1 cells, passages 2 to 5
measurementKind: Ratio of MRP2 band intensity to β-actin band intensity

>>> quantitativeresult("shRNA/MRP2 #5: interfering RNA to MRP2, SEQ ID NO: 19, lentivirally transduced into C2BBe1 cells; clone #5 (CCGGGCATCTGAAGTCCCTGAGAAACTCGAGTTTCTCAGGGACTTCAGATGCTTTTTG; listed as Homo Sapiens)")
0.63
>>> quantitativeresult("shRNA/MRP2 #3: interfering RNA to MRP2, SEQ ID NO: 17, lentivirally transduced into C2BBe1 cells; clone #3 (CCGGCGTGTATAAATCCAGGACCAACTCGAGTTGGTCCTGGATTTATACACGTTTTTG; listed as Homo Sapiens)")
0.57
>>> quantitativeresult("shRNA/MRP2 #7: interfering RNA to MRP2, SEQ ID NO: 21, lentivirally transduced into C2BBe1 cells; clone #7 (CCGGCCATAGCTTCATTCCTGAGTACTCGAGTACTCAGGAATGAAGCTATGGTTTTTG; listed as Homo Sapiens)")
0.54
>>> quantitativeresult("shRNA/MRP2 #4: interfering RNA to MRP2, SEQ ID NO: 18, lentivirally transduced into C2BBe1 cells; clone #4 (CCGGCCTGGTGGATAGCAACAATATCTCGAGATATTGTTGCTATCCACCAGGTTTTTG; listed as Homo Sapiens)")
0.57
>>> quantitativeresult("shRNA/MRP2 #6: interfering RNA to MRP2, SEQ ID NO: 20, lentivirally transduced into C2BBe1 cells; clone #6 (CCGGGCCGGTGGTCAGATTATCATTCTCGAGAATGATAATCTGACCACCGGCTTTTTG; listed as Homo Sapiens)")
0.72
